These data points were gathered from patent US20220220215A1.

# Target Or System: T1, Rhesus CD137-Fc tagged protein (rhesus, UniProt H9Z8K9 24-186)
# T1 construct: extracellular domain; The Octet paragraph gives no catalogue number; also called rhCD137-Fc
# Procedure Summary: BLI (Octet RED384), CD137-Fc on Protein G sensor, 1:1 model
kon values, listed per item
// note: answer is a bare numeric in M⁻¹ s⁻¹

Recorded results for 2 binders are shown here.
# Binder, kon [M⁻¹ s⁻¹]
rows = [
    ("003BB172-E01-8 (VHH, Human VH single domain antibody, monovalent) VHH: EVQLVESGGGVVQPGGSLRLSCAASGFTFSNYGMHWVRQAPGKGLEWVAVISNDGNTKTYADSVKGRFTISRDNSKNTLYLQMNSLRTEDTAVYYCAQDETTTVTASYYFDYWGQGTLVTVSS", 65000),
    ("003BB172-E01-2 (VHH, Human VH single domain antibody, monovalent) VHH: EVQLVESGGGLVQPGGSLRLSCAASGFTFSNYGMHWVRQAPGKRLEWVAVISNDGNTKTYADSVKGRFTISRDNSKNTLYLQMTSLRTEDTAVYYCAQDETTTVTASYYFDYWGQGTLVTVSS", 61300),
]

Alright, here's another binder for you.
query: Quick one: kon of 003BB172-E01-13 (VHH, Human VH single domain antibody, monovalent; also called CD137D; 172E1-13) VHH: EVQLVESGGGVVQPGGSLRLSCAASGFTFSNYGMHWVRQAPGKGLEWVAVISNDGNTKTYADSVKGRFTISRDNSKNTLYLQMNSLRAEDTAVYYCAQDETTTVTASYYFDYWGQGTLVTVSS ?
result: 111000
